Read-out: TIMP metallopeptidase inhibitor 1 (TIMP1), TIMP1 (gene 7076)
Assay: BSK_MyoF_TIMP1: BioMAP Diversity Plus: MyoF Assay for TIMP metallopeptidase inhibitor 1 (TIMP1) Biomarker Activity (AID 2284269)
Details: primary human lung fibroblasts
Activity calls are given as the source filed them. How the source made its calls: active means hit-call score of the fitted dose curve at least 0.9, where 1 is the maximum; inactive means score below 0.9.
ASSAY READOUT: AC50

{"MOLECULE": "CCCCCCCCCC=O", "READOUT VALUE": "inactive"}
{"MOLECULE": "O=C(O)C[C@H](O)C[C@H](O)/C=C/c1c(C2CC2)nc2ccccc2c1-c1ccc(F)cc1", "READOUT VALUE": "inactive"}
{"MOLECULE": "COC(=O)c1ccc(C)cc1", "READOUT VALUE": "inactive"}
{"MOLECULE": "CCCCC(CC)COCCC#N (stereo unspecified)", "READOUT VALUE": "inactive"}
{"MOLECULE": "c1ccc2c(c1)c1cccc3ccc4cccc2c4c31", "READOUT VALUE": "inactive"}

// lookup AC50 for "CC(=O)Nc1ccccc1O"
inactive

Let us now turn to "CC(C)(COC(=O)c1ccccc1)COC(=O)c1ccccc1"
inactive

Let us now turn to "CCCCC/C=C/C=C/C=O"
34.2 µM (active)

Let us now turn to CC1CCC(C(C)CS)CC1S (stereo unspecified)
11.1 µM (active)

Let us now turn to "CC(C)Oc1ccccc1O"
inactive
